biological target: UniProtKB P22607; assay: FGFR3 (enzymatic assay), TR-FRET; format: biochemical; details: read-out: FGFR 3 pIC50 (converted)
Sequence (P22607 23-806): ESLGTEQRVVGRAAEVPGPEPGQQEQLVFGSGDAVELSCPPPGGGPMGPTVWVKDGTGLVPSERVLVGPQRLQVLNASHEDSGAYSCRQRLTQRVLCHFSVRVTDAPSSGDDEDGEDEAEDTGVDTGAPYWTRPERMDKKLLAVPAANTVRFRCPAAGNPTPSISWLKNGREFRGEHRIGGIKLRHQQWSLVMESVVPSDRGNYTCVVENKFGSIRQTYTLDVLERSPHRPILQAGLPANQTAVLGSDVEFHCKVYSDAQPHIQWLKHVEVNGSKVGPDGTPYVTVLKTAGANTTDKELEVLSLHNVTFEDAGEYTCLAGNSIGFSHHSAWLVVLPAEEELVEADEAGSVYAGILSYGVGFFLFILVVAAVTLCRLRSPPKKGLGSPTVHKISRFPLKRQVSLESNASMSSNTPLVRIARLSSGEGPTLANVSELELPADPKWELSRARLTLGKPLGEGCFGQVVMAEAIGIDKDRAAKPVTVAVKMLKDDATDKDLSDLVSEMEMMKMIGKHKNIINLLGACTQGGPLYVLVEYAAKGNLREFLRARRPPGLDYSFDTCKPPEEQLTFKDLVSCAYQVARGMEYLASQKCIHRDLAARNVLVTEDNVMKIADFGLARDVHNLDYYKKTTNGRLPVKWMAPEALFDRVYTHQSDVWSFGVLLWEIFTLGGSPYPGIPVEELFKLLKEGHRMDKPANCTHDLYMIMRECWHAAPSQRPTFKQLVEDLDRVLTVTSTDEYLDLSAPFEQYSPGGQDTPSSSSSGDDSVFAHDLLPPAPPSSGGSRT
measured.parameter: IC50 (nM)

Worked examples, 4 molecules total:
>>> print(df.to_string())
                                   molecule  measured_parameter  measured
0  COc1cc(OC)cc(N(CC2CC2)c2ccc3ncc(-c4c[nH]cn4)nc3c2)c1 [Compound 39]                IC50      29.5
1  COc1cc(OC)cc(N(CCNC(C)C)c2ccc3ncc(-n4cnc(CO)c4)nc3c2)c1 [Compound 77]                IC50        12
2  COc1cc(OC)cc(N(CCN2CCN(C(C)=O)CC2)c2ccc3ncc(-c4ccc(N)nc4)nc3c2)c1 [Compound 68]                IC50      33.9
3  COCCN(c1cc(OC)cc(OC)c1)c1ccc2ncc(-c3ccn(C)c3)nc2c1 [Compound 6]                IC50      6.92

A = COc1cc(OC)cc(N(CCO)c2ccc3ncc(-n4cnc(CO)c4)nc3c2)c1 [Compound 38]
B = COc1cc(OC)cc(N(CCNC(C)C)c2ccc3ncc(-c4ccc(N)nc4)nc3c2)c1 [Compound 17]
Given the listed items, does A or B have the lesser reported IC50? Your answer should be the label of the entry you select.
B
(B: 3.2 nM, A: 10.5 nM)

src = patent US10052320B2
